Procedure Details: Ulcerogenic activity in fasted albino mouse assessed as ulcer index in gastric mucosa at 10 mg/kg, po for 3 days (reference value: 0)
Format: toxicity, organism-based
Condition Notes: in vivo, 72 h, time 3 day
Measured Metric: UI
Just the number, please, no unit attached.

Solved cases below.
Compound: COc1cc(/C=C/C(=O)CC(=O)/C=C/c2ccc(O)c(OC)c2)ccc1O [CURCUMIN]
Experimental Result: 3.99
//
Compound: COc1cc(/C=C/C(=O)/C=C(O)/C=C/c2ccc(OC(=O)[C@H](CCSC)NC(=O)OCC3c4ccccc4-c4ccccc43)c(OC)c2)ccc1OC(=O)[C@H](CCSC)NC(=O)OCC1c2ccccc2-c2ccccc21
Experimental Result: 0
//
Compound: COc1cc(/C=C/C(=O)/C=C(O)/C=C/c2ccc(OC(=O)[C@@H](CCSC)NC(=O)OCc3ccccc3)c(OC)c2)ccc1OC(=O)[C@@H](CCSC)NC(=O)OCc1ccccc1
Experimental Result: 0

*Q* Item under review: `COc1cc(/C=C/C(=O)/C=C(O)/C=C/c2ccc(OC(=O)[C@@H](C)NC(=O)OCc3ccccc3)c(OC)c2)ccc1OC(=O)[C@@H](C)NC(=O)OCc1ccccc1` . Reported UI?
*A* 0

*Q* Item under review: `COc1cc(/C=C/C(=O)/C=C(O)/C=C/c2ccc(OC(=O)[C@H](N)CCSC)c(OC)c2)ccc1OC(=O)[C@H](N)CCSC.Cl.Cl` . Reported UI?
*A* 0

*Q* Item under review: `COc1cc(/C=C/C(=O)/C=C(O)/C=C/c2ccc(OC(=O)CN)c(OC)c2)ccc1OC(=O)CN.Cl.Cl` . Reported UI?
*A* 0

----------
// reported viability at 10 µM per item
Tested on: Splenocyte
Procedure Details: Immunomodulatory activity in Swiss albino mouse splenocytes assessed as cell viability at 10 uM by measuring inhibition of stimulation index incubated for 72 hrs in presence of mitogenic stimulus phytohaemagglutinin by MTT assay relative to indomethacin
Assay type: functional
Condition Notes: read-out: Activity
Number in %, nothing else.

Smiles Text: COc1cc(/C=C/C(=O)/C=C(O)/C=C/c2ccc(OC(=O)[C@@H](N)CCSC)c(OC)c2)ccc1OC(=O)[C@@H](N)CCSC.Cl.Cl
Readout Unit: %
viability at 10 µM: 81.3

*Q* Item under review: `COc1cc(/C=C/C(=O)/C=C(O)/C=C/c2ccc(OC(=O)[C@@H](CCSC)NC(=O)OCc3ccccc3)c(OC)c2)ccc1OC(=O)[C@@H](CCSC)NC(=O)OCc1ccccc1` . Reported viability at 10 µM?
*A* 88.5

*Q* Item under review: `COc1cc(/C=C/C(=O)/C=C(O)/C=C/c2ccc(OC(=O)[C@@H](CCSC)NC(=O)OC(C)(C)C)c(OC)c2)ccc1OC(=O)[C@@H](CCSC)NC(=O)OC(C)(C)C` . Reported viability at 10 µM?
*A* 47.7

*Q* Item under review: `COc1cc(/C=C/C(=O)/C=C(O)/C=C/c2ccc(OC(=O)[C@@H](C)NC(=O)OC(C)(C)C)c(OC)c2)ccc1OC(=O)[C@@H](C)NC(=O)OC(C)(C)C` . Reported viability at 10 µM?
*A* 58.3

*Q* Item under review: `COc1cc(/C=C/C(=O)/C=C(O)/C=C/c2ccc(OC(=O)CNC(=O)OCc3ccccc3)c(OC)c2)ccc1OC(=O)CNC(=O)OCc1ccccc1` . Reported viability at 10 µM?
*A* 45.8

*Q* Item under review: `COc1cc(/C=C/C(=O)/C=C(O)/C=C/c2ccc(OC(=O)[C@H](C)N)c(OC)c2)ccc1OC(=O)[C@H](C)N.Cl.Cl` . Reported viability at 10 µM?
*A* 106

----------
Test system: Mus musculus
Procedure Details: Analgesic activity in albino mouse assessed as protection at 10 mg/kg, ip measured after 60 mins by hot plate test (reference value: 0 %)
Format: functional
Condition Notes: 1 h
Lab note: anything with Activity at or over 40% counts as Satisfied; the rest go in Not satisfied.

Compound: COc1cc(/C=C/C(=O)/C=C(O)/C=C/c2ccc(OC(=O)C(C)NC(=O)OCc3ccccc3)c(OC)c2)ccc1OC(=O)C(C)NC(=O)OCc1ccccc1 (stereo unspecified)
Assigned Category: Satisfied

Compound: COc1cc(/C=C/C(=O)/C=C(O)/C=C/c2ccc(OC(=O)CN)c(OC)c2)ccc1OC(=O)CN.Cl.Cl
Assigned Category: Not satisfied

Compound: COc1cc(/C=C/C(=O)/C=C(O)/C=C/c2ccc(OC(=O)[C@H](CCSC)NC(=O)OC(C)(C)C)c(OC)c2)ccc1OC(=O)[C@H](CCSC)NC(=O)OC(C)(C)C
Assigned Category: Satisfied

Compound: COc1cc(/C=C/C(=O)/C=C(O)/C=C/c2ccc(OC(=O)CCN)c(OC)c2)ccc1OC(=O)CCN.Cl.Cl
Assigned Category: Satisfied

*Q* Say whether `COc1cc(/C=C/C(=O)/C=C(O)/C=C/c2ccc(OC(=O)[C@H](CCSC)NC(=O)OCC3c4ccccc4-c4ccccc43)c(OC)c2)ccc1OC(=O)[C@H](CCSC)NC(=O)OCC1c2ccccc2-c2ccccc21` shows Activity of 40% or more.
*A* Satisfied

*Q* Say whether COc1cc(/C=C/C(=O)CC(=O)/C=C/c2ccc(O)c(OC)c2)ccc1O [CURCUMIN] shows Activity of 40% or more.
*A* Not satisfied

----------
Tested on: Rattus norvegicus
Procedure Details: Antiinflammatory activity in Wistar rat model of carrageenan-induced paw edema assessed as reduction in thickness of paw edema at 10 mg/kg, ip pretreated for 1 hr followed by carrageenan challenge and measured after 4 hrs (reference value: 1.40 +/-0.10 mm)
Format: functional
Condition Notes: time 5 hrs
Measured Metric: Activity (mm)
Number in mm, nothing else.

Compound: COc1cc(/C=C/C(=O)/C=C(O)/C=C/c2ccc(OC(=O)[C@@H](C)N)c(OC)c2)ccc1OC(=O)[C@@H](C)N.Cl.Cl
Activity [mm]: 0.06
//
Compound: COc1cc(/C=C/C(=O)/C=C(O)/C=C/c2ccc(OC(=O)[C@@H](CCSC)NC(=O)OC(C)(C)C)c(OC)c2)ccc1OC(=O)[C@@H](CCSC)NC(=O)OC(C)(C)C
Activity [mm]: 0.15
//
Compound: COc1cc(/C=C/C(=O)/C=C(O)/C=C/c2ccc(OC(=O)[C@H](C)NC(=O)OCc3ccccc3)c(OC)c2)ccc1OC(=O)[C@H](C)NC(=O)OCc1ccccc1
Activity [mm]: 1.23

*Q* Item under review: `COc1cc(/C=C/C(=O)/C=C(O)/C=C/c2ccc(OC(=O)CCNC(=O)OC(C)(C)C)c(OC)c2)ccc1OC(=O)CCNC(=O)OC(C)(C)C` . Reported Activity?
*A* 0.55

*Q* Item under review: CC(C)Cc1ccc(C(C)C(=O)O)cc1 (centres undefined) [IBUPROFEN] . Reported Activity?
*A* 0.29

*Q* Item under review: `CC[C@H](C)[C@H](N)C(=O)Oc1ccc(/C=C/C(=O)/C=C(O)/C=C/c2ccc(OC(=O)[C@@H](N)[C@@H](C)CC)c(OC)c2)cc1OC.Cl.Cl` . Reported Activity?
*A* 0.34

*Q* Item under review: `COc1cc(/C=C/C(=O)/C=C(O)/C=C/c2ccc(OC(=O)[C@H](Cc3ccccc3)NC(=O)OC(C)(C)C)c(OC)c2)ccc1OC(=O)[C@H](Cc1ccccc1)NC(=O)OC(C)(C)C` . Reported Activity?
*A* 0.58

----------
// reported viability at 10 µM per item
Tested on: Splenocyte
Procedure Details: Immunomodulatory activity in Swiss albino mouse splenocytes assessed as cell viability at 10 uM by measuring inhibition of stimulation index incubated for 72 hrs in presence of mitogenic stimulus phytohaemagglutinin by MTT assay relative to indomethacin
Type: functional
Condition Notes: read-out: Activity
Number in %, nothing else.

Solved cases below.
Smiles Text: COc1cc(/C=C/C(=O)/C=C(O)/C=C/c2ccc(OC(=O)[C@@H](NC(=O)OC(C)(C)C)C(C)C)c(OC)c2)ccc1OC(=O)[C@@H](NC(=O)OC(C)(C)C)C(C)C
Readout Unit: %
viability at 10 µM: 65.6
//
Smiles Text: COc1cc(/C=C/C(=O)/C=C(O)/C=C/c2ccc(OC(=O)[C@@H](N)CCC(N)=O)c(OC)c2)ccc1OC(=O)[C@@H](N)CCC(N)=O.Cl.Cl
Readout Unit: %
viability at 10 µM: 54.5
//
Smiles Text: COc1cc(/C=C/C(=O)/C=C(O)/C=C/c2ccc(OC(=O)[C@@H](NC(=O)OCc3ccccc3)C(C)C)c(OC)c2)ccc1OC(=O)[C@@H](NC(=O)OCc1ccccc1)C(C)C
Readout Unit: %
viability at 10 µM: 42.1
//
Smiles Text: COc1cc(/C=C/C(=O)/C=C(O)/C=C/c2ccc(OC(=O)[C@H](C)NC(=O)OC(C)(C)C)c(OC)c2)ccc1OC(=O)[C@H](C)NC(=O)OC(C)(C)C
Readout Unit: %
viability at 10 µM: 44.6
//
Smiles Text: COc1cc(/C=C/C(=O)/C=C(O)/C=C/c2ccc(OC(=O)[C@@H](N)C(C)C)c(OC)c2)ccc1OC(=O)[C@@H](N)C(C)C.Cl.Cl
Readout Unit: %
viability at 10 µM: 59

Let's switch to this compound now.
*Q* Hi! What's the reported viability at 10 µM for `COc1cc(/C=C/C(=O)/C=C(O)/C=C/c2ccc(OC(=O)[C@H](CCSC)NC(=O)OCc3ccccc3)c(OC)c2)ccc1OC(=O)[C@H](CCSC)NC(=O)OCc1ccccc1` on Splenocyte?
*A* 99.3
